IC50 values for Acetyl-CoA carboxylase 1 (Homo sapiens, UniProt Q13085), compiled from several publications.
reported-property: IC50 (nM)

compound="COc1ccccc1C(Cn1c(=O)n(C(C)(C)C(=O)O)c(=O)c2c(C)c(-c3ncco3)sc21)O[C@@H]1C[C@@H]2CC(F)(F)C[C@@H]2C1 (some centres unmarked)" test_value=1.43
compound=COc1ccccc1[C@H](Cn1c(=O)n(C(C)(C)C(=O)O)c(=O)c2c(C)c(-c3ncco3)sc21)O[C@H]1C[C@H]2COC[C@H]2C1 test_value=0.23
compound="COc1ccccc1C(Cn1c(=O)n(-c2cc(C(=O)O)ccc2F)c(=O)c2c(C)c(-c3ncco3)sc21)OC1CCOCC1 (centres unmarked)" test_value=7.97
compound="COc1ccccc1C(Cn1c(=O)n(-c2cccc(C(=O)O)c2OC)c(=O)c2c(C)c(-c3ncco3)sc21)OC1CCOCC1 (centres unmarked)" test_value=2.13
compound="COc1ccccc1C(Cn1nc(C2(C(=O)O)CC2)c(=O)c2c(C)c(-c3ncco3)sc21)OC1CCOCC1 (centres unmarked)" test_value=46.6
compound=CC(=O)N[C@@H](C)C#Cc1ccc(Oc2ccc(OC(C)C)cc2)cc1 test_value=26

A = COc1ccccc1C(Cn1c(=O)n(C(C)(C)C(=O)O)c(=O)c2c(C)c(-c3ncco3)sc21)OC1CCN(S(C)(=O)=O)CC1 (centres unmarked)
B = COc1ccccc1C(Cn1c(=O)n(C(C)(C)C(=O)O)c(=O)c2c(C)c(-c3ncco3)sc21)OC1CCN(C(C)=O)CC1 (centres unmarked)
Exercise: Sorting ascending by IC50, which comes first: A or B ? Your answer should be the label attached to the chosen record.
Solution: A

a = COc1ccccc1C(Cn1c(=O)n(C(C)(C)C(=O)O)c(=O)c2c(C)c(-c3ncco3)sc21)O[C@H]1C[C@H]2C[C@H](F)C[C@H]2C1 (some centres unmarked)
b = CC(C)n1ncc2c1C(=O)CC1(CCN(C(=O)c3ccc4ccc(N)nc4c3)CC1)C2
Exercise: Sorting ascending by IC50, which comes first: a or b ? Your answer should be the label attached to the chosen record.
Solution: a
(a: 2.24 nM, b: 5 nM)

1 = COc1ccc2ccc(C(=O)N3CCC4(CC3)CC(=O)c3c(cnn3C(C)C)C4)cc2c1
2 = COc1ccccc1[C@H](Cn1c(=O)n(C(C)(C)C(=O)O)c(=O)c2c(C)c(-c3ncco3)sc21)OC1C[C@H]2COC[C@@H]2C1
Exercise: Sorting ascending by IC50, which comes first: 1 or 2 ? Your answer should be the label attached to the chosen record.
Solution: 2
(2: 1.42 nM, 1: 3 nM)

----------
pIC50: −log10 of the molar value.
pIC50 values for Acetyl-CoA carboxylase 1 (Homo sapiens), compiled from several publications.
reported-property: pIC50

Solved entries (count: 3):
compound="CCS(=O)(=O)N1CC(n2c(=O)c3c(C)c(-c4ncco4)sc3n(CC(OC3CCOCC3)c3ccccc3OC)c2=O)C1 (centres unmarked)" reported_property=pIC50 test_value=8.87
compound="COc1ccccc1C(Cn1c(=O)n(C(C)(C)C(=O)O)c(=O)c2c(C)c(-c3ncco3)sc21)O[C@@H]1C[C@@H]2CC(O)(C#N)C[C@@H]2C1 (some centres unmarked)" reported_property=pIC50 test_value=8.84
compound=COC(=O)c1cncc(-c2ccc3c(c2)C(=O)OC2(CCN(C(=O)c4cc(OC)c5c(C)cn(C6CC6)c5c4)CC2)C3)c1 reported_property=pIC50 test_value=6.53

1 = COc1ccccc1C(Cn1c(=O)n(C2CN(C(=O)C3CC3)C2)c(=O)c2c(C)c(-c3ncco3)sc21)OC1CCOCC1 (centres unmarked)
2 = COc1ccccc1C(Cn1nc(C(C)(C)C(=O)O)c(=O)c2c(C)c(-c3ncco3)sc21)OC1CCN(C(C)=O)CC1 (racemic)
3 = COc1ccccc1C(Cn1c(=O)n(C2CN(S(C)(=O)=O)C2)c(=O)c2c(C)c(-c3ncco3)sc21)OC1CCOCC1 (centres unmarked)
4 = CC(C)n1ncc2c1C(=O)CC1(CCN(C(=O)c3ccc4ccc(NC(C)(C)C)nc4c3)CC1)C2
Exercise: Rank entries according to their pIC50, from the largest number down. Give the labels in the order requested.
Solution: 1, 3, 4, 2
(1: 8.95, 3: 8.69, 4: 8.22, 2: 7.59)
